biological target: renal dipeptidase (E.C.3.4.13.11) (Sus scrofa, UniProt P22412); construct: solubilized preparation of dipeptidase isolated from hog kidneys; assay: Inhibition of GDP (glycyldehydrophenylalanine) hydrolysis by solubilized renal dipeptidase
Sequence (P22412 17-409): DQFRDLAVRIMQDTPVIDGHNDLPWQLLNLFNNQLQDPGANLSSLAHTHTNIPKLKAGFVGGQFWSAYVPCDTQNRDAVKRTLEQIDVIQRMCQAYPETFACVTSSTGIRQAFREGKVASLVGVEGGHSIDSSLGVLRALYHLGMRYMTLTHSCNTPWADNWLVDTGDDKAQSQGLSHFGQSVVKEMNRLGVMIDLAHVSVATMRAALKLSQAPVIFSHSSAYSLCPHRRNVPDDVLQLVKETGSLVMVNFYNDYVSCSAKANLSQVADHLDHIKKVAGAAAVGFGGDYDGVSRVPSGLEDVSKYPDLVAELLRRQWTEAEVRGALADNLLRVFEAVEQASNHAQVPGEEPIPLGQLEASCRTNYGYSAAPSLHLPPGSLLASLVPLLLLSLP
pKi: −log10 of the molar value.
observable: pKi

Worked cases, answers included:
CC1(C)CC1C(=O)N/C(=C\CC1CCCO1)C(=O)O (stereo not drawn) = 6.41
CC1(C)CC1C(=O)N/C(=C\Cc1ccccc1)C(=O)O (stereo not drawn) = 6.36
CCCCCCC/C=C(\NC(=O)C1CC1(C)C)C(=O)O (stereo not drawn) = 7.04

[A] CC(C)/C=C(\NC(=O)C1CC1(C)C)C(=O)O (stereo not drawn)
[B] CN(C)C(=N)NCCCCC/C=C(\NC(=O)C1CC1(C)C)C(=O)O (stereo not drawn)
// compare measured pKi, left A , right B , return larger Respond using the label that marks the chosen record. B

Origin of measurements: patent US4539208A
